# System: 935938-334-R-J1-PDC complex spheroid viability;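 further: spheroids exposed to drugs for seven days before viability read; 100% = DMSO vehicle control wells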
# Protocol details: Anticancer human tumor 935938-334-R-J1-PDC patient-derived small intestine adenocarcinoma cell line growth inhibition [POLQ]
# Assay context: second compound 10 µM; first compound 0.0316 µM; hits give low values
# Protocol: Multicellular complex tumor spheroid response to Polymerase (POL) inhibitors (novobiocin, ART-558, RP6685) in combination with a variety of drugs and investigational agents in selected tumor cell lines The POL inhibitors (novobiocin, ART-558, and RP6685) were evaluated both individually and in combination with standard of care and investigational anticancer small molecules within a complex spheroid model of solid tumors. . […]
Recorded endpoint: viability, T/C (%)
The response must be a number in % with no trailing unit.

**Q:** If you can, please state the reported viability, T/C value of CCc1cc2c(N3CCc4c(cc(Cn5ccnc5)cc4-c4cn(C)nc4C(F)(F)F)C3=O)ccnc2c(OC)n1 + Cc1cccc(N(C)C(=O)C2C(O)CCN2c2nc(C)cc(C(F)(F)F)c2C#N)c1 .
**A:** 95.5

**Q:** // same read-out, input: CC1COCCN1c1cc(-c2ccnn2C)c2ccnc(-c3ccn[nH]3)c2n1 (stereo unspecified) + COC1C(OC(N)=O)C(O)C(Oc2ccc3c(O)c(NC(=O)c4ccc(O)c(CC=C(C)C)c4)c(=O)oc3c2C)OC1(C)C
**A:** 74.9

**Q:** // same read-out, input: Cn1ncnc1[C@H]1c2n[nH]c(=O)c3cc(F)cc(c23)N[C@@H]1c1ccc(F)cc1 + Cc1cccc(N(C)C(=O)C2C(O)CCN2c2nc(C)cc(C(F)(F)F)c2C#N)c1
**A:** 87.9

**Q:** // same read-out, input: CNCc1ccc(-c2[nH]c3cc(F)cc4c3c2CCNC4=O)cc1 + COC1C(OC(N)=O)C(O)C(Oc2ccc3c(O)c(NC(=O)c4ccc(O)c(CC=C(C)C)c4)c(=O)oc3c2C)OC1(C)C
**A:** 95.7

**Q:** // same read-out, input: CCc1cc2c(N3CCc4c(cc(Cn5ccnc5)cc4-c4cn(C)nc4C(F)(F)F)C3=O)cc(C)nc2c(OC)n1 + COC1C(OC(N)=O)C(O)C(Oc2ccc3c(O)c(NC(=O)c4ccc(O)c(CC=C(C)C)c4)c(=O)oc3c2C)OC1(C)C
**A:** 85.7

**Q:** // same read-out, input: CCCS(=O)(=O)Nc1ccc(F)c(C(=O)c2c[nH]c3ncc(-c4ccc(Cl)cc4)cc23)c1F + Cc1cccc(N(C)C(=O)C2C(O)CCN2c2nc(C)cc(C(F)(F)F)c2C#N)c1
**A:** 106

**Q:** // same read-out, input: CC[C@@]1(O)C(=O)OCc2c1cc1n(c2=O)Cc2cc3c(CN(C)C)c(O)ccc3nc2-1 + COC1C(OC(N)=O)C(O)C(Oc2ccc3c(O)c(NC(=O)c4ccc(O)c(CC=C(C)C)c4)c(=O)oc3c2C)OC1(C)C
**A:** 71.7

**Q:** // same read-out, input: CC1COCCN1c1cc(-c2ccnn2C)c2ccnc(-c3ccn[nH]3)c2n1 (stereo unspecified) + Cc1cccc(N(C)C(=O)C2C(O)CCN2c2nc(C)cc(C(F)(F)F)c2C#N)c1
**A:** 86

**Q:** // same read-out, input: CCc1c2c(nc3ccc(O)cc13)-c1cc3c(c(=O)n1C2)COC(=O)[C@]3(O)CC + Cc1cccc(N(C)C(=O)C2C(O)CCN2c2nc(C)cc(C(F)(F)F)c2C#N)c1
**A:** 43.2

**Q:** // same read-out, input: Cn1ncnc1[C@H]1c2n[nH]c(=O)c3cc(F)cc(c23)N[C@@H]1c1ccc(F)cc1 + Nc1ccc(C#CCN(C(=O)Cc2ncc(C(F)(F)F)cc2C(F)(F)F)c2ccc(F)cc2)nn1
**A:** 99.5

**Q:** // same read-out, input: O=c1[nH]cc(F)c(=O)[nH]1 + COC1C(OC(N)=O)C(O)C(Oc2ccc3c(O)c(NC(=O)c4ccc(O)c(CC=C(C)C)c4)c(=O)oc3c2C)OC1(C)C
**A:** 76.6
